# ASSAYED SYSTEM: T1, human IL-21R extracellular domain His-Flag fusion protein (human, UniProt Q9HBE5 20-232)
# T1 construct: Biotinylated in the HTRF screen; also called hIL-21R-H/F; human IL-21R-H/F
# T1 sequence (Q9HBE5 20-232): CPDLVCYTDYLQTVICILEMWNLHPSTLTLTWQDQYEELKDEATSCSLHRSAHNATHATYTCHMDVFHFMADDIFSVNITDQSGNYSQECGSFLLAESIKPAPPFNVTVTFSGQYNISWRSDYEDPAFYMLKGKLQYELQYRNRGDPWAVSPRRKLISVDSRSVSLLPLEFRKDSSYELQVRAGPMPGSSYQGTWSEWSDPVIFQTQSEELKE
# TEST: SPR, Ab captured on anti-human IgG
TEST READOUT: pKd
When answering, recall that pKd equals minus log10 of the concentration in mol/L, and write that number alone.

Recorded pKd (binder AbS (antibody, V domains shown, CDR3 graft, residue limits derived as for m29; also called VHP/VL6; VHPTM/VL6) VH: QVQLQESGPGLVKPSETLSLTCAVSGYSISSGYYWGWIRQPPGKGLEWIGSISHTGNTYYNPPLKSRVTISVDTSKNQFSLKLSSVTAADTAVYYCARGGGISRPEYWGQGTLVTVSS VL: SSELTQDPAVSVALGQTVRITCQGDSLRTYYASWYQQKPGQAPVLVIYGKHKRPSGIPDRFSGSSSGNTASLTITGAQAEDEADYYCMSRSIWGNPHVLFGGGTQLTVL ): 8.69

Recorded pKd (binder AbU (antibody, human IgG1, V domains shown, CDR3 graft, residue limits derived as for m29; also called VHP/VL25; VHPTM/VL25) VH: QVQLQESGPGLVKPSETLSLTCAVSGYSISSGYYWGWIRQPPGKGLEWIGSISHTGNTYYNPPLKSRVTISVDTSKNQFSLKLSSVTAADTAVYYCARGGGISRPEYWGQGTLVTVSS VL: SSELTQDPAVSVALGQTVRITCQGDSLRTYYASWYQQKPGQAPVLVIYGKHKRPSGIPDRFSGSSSGNTASLTITGAQAEDEADYYCTTRSNKGNPHVLFGGGTQLTVL ): 9.36

Every entry's value here was drawn from patent US20120276102A1.
